biological target: Caspase-9 (Homo sapiens); test: Selectivity interaction (Enzymatic assay) EUB0002198aAD CASP9; design: recommended concentration 1 uM
Sequence (P55211 1-315 limits assumed): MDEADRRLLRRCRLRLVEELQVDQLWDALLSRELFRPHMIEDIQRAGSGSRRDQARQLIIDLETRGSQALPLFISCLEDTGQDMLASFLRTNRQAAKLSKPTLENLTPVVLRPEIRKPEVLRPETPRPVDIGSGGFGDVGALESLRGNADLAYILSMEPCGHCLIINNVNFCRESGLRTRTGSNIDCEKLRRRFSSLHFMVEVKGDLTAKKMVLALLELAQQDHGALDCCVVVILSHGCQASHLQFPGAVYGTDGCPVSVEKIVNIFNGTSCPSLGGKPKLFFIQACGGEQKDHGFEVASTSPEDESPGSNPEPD
Sequence (P55211 331-416 limits assumed): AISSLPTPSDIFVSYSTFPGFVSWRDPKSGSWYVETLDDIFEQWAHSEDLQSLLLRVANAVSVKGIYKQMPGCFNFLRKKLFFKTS
Where a SMILES comes first, the peptide text is derived from it.
EXPERIMENTAL_READOUT: pIC50
Remember the convention: pIC50 equals -log10 of concentration in molar.

What pIC50 value was documented for this compound, CC(=O)N[C@@H](CC(C)C)C(=O)N[C@@H](CCC(=O)O)C(=O)N[C@@H](Cc1cnc[nH]1)C(=O)N[C@H](C=O)CC(=O)O (Ac-LEHD-aldehyde) ?
7.31

---

target: Caspase-5 (Homo sapiens); test: Selectivity interaction (Eurofins (enzymatic assay)) EUB0002201a CASP5; set-up: recommended concentration 1 uM
Sequence (P51878 137-327 limits assumed): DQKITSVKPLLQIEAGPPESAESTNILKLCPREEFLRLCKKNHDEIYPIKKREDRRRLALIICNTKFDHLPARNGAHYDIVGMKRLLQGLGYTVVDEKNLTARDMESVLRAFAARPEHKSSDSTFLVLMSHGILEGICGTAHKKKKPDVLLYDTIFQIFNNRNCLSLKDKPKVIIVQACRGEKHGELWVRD
Sequence (P51878 347-434 limits assumed): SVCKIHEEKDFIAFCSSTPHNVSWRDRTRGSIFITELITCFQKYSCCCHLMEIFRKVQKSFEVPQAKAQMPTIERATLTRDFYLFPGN
Where a SMILES comes first, the peptide text is derived from it.
EXPERIMENTAL_READOUT: IC50

Query (compound): CC(=O)N[C@@H](CC(C)C)C(=O)N[C@@H](CCC(=O)O)C(=O)N[C@H](C(=O)N[C@H](C=O)CC(=O)O)C(C)C (Ac-LEVD-aldehyde) ; field requested: IC50
140 nM

---

molecular target: Kappa-type opioid receptor (Homo sapiens); assay: Selectivity interaction (Panel of neurotransmitter receptors, receptors, ion channels/regulatory sites) EUB0002781aCl OPRK1
Sequence (P41145 whole entry): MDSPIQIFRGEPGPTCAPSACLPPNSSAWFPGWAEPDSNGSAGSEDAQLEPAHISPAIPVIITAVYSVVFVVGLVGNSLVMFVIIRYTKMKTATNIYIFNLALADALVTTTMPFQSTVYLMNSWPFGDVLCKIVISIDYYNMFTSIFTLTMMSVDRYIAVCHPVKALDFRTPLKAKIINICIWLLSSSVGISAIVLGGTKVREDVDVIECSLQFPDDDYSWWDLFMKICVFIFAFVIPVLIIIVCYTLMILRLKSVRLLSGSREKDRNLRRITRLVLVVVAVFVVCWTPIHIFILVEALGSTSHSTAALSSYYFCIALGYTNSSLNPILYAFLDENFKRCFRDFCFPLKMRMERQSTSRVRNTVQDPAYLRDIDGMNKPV
EXPERIMENTAL_READOUT: Ki

What value of Ki has been reported for the following compound? N=C(N)NC(=O)c1cnn(-c2cccc3ncccc23)c1C1CC1
213 nM

---

target: Histone acetyltransferase p300 (Homo sapiens, UniProt Q09472); assay: Selectivity interaction (BROMOscan (DiscoverX)) EUB0002298a EP300; design: recommended concentration 1 uM
Sequence (Q09472 whole entry): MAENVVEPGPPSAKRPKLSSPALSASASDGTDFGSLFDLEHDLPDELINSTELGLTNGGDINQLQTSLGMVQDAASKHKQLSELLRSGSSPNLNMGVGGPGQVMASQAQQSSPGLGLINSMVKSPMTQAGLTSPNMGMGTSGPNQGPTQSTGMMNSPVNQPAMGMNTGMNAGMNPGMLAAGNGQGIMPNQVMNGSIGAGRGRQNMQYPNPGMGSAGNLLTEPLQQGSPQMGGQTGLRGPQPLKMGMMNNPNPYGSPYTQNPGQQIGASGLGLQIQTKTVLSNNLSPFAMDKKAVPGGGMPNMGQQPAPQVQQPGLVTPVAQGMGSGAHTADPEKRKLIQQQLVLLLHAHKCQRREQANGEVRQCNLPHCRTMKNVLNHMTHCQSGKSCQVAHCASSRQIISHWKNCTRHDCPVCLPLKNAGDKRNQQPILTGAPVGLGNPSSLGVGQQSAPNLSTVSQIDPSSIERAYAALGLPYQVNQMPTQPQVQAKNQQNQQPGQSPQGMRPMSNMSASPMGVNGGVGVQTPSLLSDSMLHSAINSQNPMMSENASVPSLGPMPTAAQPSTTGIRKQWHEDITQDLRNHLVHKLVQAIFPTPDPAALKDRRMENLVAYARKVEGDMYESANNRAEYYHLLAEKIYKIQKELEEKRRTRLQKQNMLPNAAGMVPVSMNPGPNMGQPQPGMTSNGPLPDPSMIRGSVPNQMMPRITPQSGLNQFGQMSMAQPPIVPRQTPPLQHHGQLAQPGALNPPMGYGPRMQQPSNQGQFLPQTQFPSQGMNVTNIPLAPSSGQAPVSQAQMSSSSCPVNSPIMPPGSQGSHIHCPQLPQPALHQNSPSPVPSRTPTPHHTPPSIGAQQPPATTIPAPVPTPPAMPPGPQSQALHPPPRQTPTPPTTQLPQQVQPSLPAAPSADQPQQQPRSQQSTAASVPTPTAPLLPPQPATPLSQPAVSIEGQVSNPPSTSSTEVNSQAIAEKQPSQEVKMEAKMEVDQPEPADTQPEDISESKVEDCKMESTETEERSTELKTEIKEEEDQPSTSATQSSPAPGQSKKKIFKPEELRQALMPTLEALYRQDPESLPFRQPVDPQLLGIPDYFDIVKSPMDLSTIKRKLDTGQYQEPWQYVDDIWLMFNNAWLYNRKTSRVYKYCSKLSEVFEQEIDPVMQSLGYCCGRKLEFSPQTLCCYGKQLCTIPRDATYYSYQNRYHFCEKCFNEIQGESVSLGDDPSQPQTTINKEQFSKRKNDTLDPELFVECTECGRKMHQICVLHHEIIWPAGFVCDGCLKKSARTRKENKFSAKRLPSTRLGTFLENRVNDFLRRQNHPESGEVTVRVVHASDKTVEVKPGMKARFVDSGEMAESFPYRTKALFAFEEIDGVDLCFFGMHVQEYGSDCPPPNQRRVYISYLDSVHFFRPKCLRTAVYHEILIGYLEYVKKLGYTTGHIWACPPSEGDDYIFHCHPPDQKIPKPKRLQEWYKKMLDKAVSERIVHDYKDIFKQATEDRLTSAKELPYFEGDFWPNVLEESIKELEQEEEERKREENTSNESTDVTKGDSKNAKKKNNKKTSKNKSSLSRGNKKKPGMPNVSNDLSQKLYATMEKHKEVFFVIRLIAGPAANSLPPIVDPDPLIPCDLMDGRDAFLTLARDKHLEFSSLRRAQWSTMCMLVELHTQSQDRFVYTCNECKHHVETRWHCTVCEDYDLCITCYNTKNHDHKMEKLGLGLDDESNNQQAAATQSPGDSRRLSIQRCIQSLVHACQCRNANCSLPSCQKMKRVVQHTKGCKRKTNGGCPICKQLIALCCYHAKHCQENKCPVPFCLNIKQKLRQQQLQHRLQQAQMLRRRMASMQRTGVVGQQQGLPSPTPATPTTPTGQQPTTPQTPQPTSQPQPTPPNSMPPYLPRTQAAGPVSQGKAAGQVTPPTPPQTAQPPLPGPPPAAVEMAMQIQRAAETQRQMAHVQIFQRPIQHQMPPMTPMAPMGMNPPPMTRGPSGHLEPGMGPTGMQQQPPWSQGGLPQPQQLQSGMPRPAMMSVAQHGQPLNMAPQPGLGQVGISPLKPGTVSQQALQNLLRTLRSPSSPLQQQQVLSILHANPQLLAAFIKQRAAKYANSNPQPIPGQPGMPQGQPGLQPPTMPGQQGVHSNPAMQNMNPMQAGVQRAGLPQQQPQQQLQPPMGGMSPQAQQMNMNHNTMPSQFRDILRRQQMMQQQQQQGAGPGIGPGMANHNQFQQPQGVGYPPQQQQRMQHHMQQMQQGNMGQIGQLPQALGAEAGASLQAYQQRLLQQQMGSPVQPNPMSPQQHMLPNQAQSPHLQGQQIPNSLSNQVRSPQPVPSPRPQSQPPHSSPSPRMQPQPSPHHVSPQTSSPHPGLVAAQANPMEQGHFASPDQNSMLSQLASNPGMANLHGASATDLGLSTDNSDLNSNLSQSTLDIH
EXPERIMENTAL_READOUT: IC50 (nM)
Give your result in nM as a bare value.

Using the record for CCCOc1ccc(CCc2nc3cc(-c4c(C)noc4C)ccc3n2CCN2CCOCC2)cc1 , report its IC50.
363

---

target: Mu-type opioid receptor (Homo sapiens); test: Selectivity interaction (Panel of neurotransmitter receptors, receptors, ion channels/regulatory sites) EUB0002781aCl OPRM1; parameters: recommended concentration 1 uM
Sequence (P35372 whole entry): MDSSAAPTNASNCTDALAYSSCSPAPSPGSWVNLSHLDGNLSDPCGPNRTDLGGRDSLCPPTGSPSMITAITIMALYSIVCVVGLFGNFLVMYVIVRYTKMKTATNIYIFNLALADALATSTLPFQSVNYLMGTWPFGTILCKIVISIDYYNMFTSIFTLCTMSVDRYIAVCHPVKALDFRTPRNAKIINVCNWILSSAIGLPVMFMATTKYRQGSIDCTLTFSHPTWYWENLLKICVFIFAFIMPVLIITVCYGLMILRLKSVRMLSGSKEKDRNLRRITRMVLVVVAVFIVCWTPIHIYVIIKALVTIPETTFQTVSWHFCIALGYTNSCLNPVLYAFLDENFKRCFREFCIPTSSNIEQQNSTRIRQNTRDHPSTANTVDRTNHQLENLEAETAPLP
EXPERIMENTAL_READOUT: pKi
Scale: pKi equals -log10([C]), with [C] in mol/L.

Requested read-out: pKi. Entry: N=C(N)NC(=O)c1cnn(-c2cccc3ncccc23)c1C1CC1
7.22

---

Target: Bromodomain-containing protein 9 (Homo sapiens)
Sequence (Q9H8M2 whole entry): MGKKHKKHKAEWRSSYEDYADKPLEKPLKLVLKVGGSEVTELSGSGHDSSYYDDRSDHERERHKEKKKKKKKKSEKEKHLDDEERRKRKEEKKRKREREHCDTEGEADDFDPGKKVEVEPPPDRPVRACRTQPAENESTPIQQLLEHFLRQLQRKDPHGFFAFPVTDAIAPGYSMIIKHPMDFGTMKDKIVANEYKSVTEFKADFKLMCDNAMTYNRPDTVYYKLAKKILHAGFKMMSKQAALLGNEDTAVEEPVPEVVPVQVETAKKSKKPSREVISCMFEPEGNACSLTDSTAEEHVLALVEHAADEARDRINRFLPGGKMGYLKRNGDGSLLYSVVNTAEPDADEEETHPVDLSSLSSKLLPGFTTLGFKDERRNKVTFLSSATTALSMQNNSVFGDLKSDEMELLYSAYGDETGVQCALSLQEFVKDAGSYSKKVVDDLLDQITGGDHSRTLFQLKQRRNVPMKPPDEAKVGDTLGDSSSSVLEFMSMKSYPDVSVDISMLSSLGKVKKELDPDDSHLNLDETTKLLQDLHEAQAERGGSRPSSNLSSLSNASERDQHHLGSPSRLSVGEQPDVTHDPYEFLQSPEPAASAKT
Assay: Selectivity interaction (Bromodomain panel) EUB0000233b BRD9
Parameters: recommended concentration 1 uM
EXPERIMENTAL_READOUT: pIC50
pIC50 here: minus log base 10 of the concentration, concentration in moles per litre.

What does the data say about its pIC50? Entry: CN(C)CCCOc1ccc(-c2cc(NCCCn3cccn3)nc(S(C)(=O)=O)n2)cc1
5.85

---

target: Caspase-5 (Homo sapiens); assay: Selectivity interaction (Enzymatic assay) EUB0002198aAD CASP5; set-up: recommended concentration 1 uM
Where a SMILES comes first, the peptide text is derived from it.
EXPERIMENTAL_READOUT: IC50 (nM)
Enter your answer as a number in nM; do not include the unit.

Quick one: IC50 for CC(=O)N[C@@H](CC(C)C)C(=O)N[C@@H](CCC(=O)O)C(=O)N[C@@H](Cc1cnc[nH]1)C(=O)N[C@H](C=O)CC(=O)O (Ac-LEHD-aldehyde) ?
21.3
